- Tgt: T1, recombinant human OX40-Fc (human, UniProt P43489 29-214)
- T1 construct: also called rh-OX40-Fc; human OX40 hFC (R & D systems)
- T1 sequence: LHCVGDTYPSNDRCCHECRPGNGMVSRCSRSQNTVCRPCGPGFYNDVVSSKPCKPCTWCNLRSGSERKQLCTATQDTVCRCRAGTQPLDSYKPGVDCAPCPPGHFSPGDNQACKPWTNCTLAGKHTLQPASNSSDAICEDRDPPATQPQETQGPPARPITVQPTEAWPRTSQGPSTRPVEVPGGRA
- Assay explanation: ELISA, OX40-Fc coated, VHH at 0.0128 nM
Hi there, I'd appreciate the recorded OD450 for every entry that follows.
No unit in the answer, please; the number alone is enough.

[ask] Requested read-out: OD450. Entry: pgXX88-SZ-4 (VHH, not shown: small tags and cut ends, also called ppXX88-SZ-4) VHH: QVQLVESGGGLAQPGSSLRLSCTASGTVFSILSATWFRQAPGKAHEARELVAFISSDGVSMHADSVKGRFTISRDNAASTVYLQMDNLQPEDTAVYFCKLSNSMMSLEYWGRGTQVTVSS
[reply] 0.062

[ask] Requested read-out: OD450. Entry: pgXX88-27 (VHH, not shown: small tags and cut ends) VHH: EVQLVESGGGLVQPGGSVTLSCATSKDTFSRYHMGWFRQAAGKEREFVAAIANTGTTTDYADFVKGRFTISRDSAKNTVYLQMDSLKVEDTAMYYCVVGSQFMSYDYWGQGTQVTVSS
[reply] 0.155

Data origin: patent US20250376535A1
